Source of measurements: the supplement of paper PMC6206229

test system: Staphylococcus aureus ATCC 29213 (MSSA); assay: minimum inhibitory concentration; extreme values may be limits of the assay
measure: minimum inhibitory concentration

Data request: Return minimum inhibitory concentration (reported value) for this molecule: `O=C(NCc1ccco1)N1CCN(Cc2ccc(Cl)s2)CC1`
Data returned: > 50 µM

Data request: Return minimum inhibitory concentration (reported value) for this molecule: CC(C)C(Oc1cccc2ccccc12)C(=O)O (stereo not given)
Data returned: > 50 µM

Data request: Return minimum inhibitory concentration (reported value) for this molecule: `CCc1nc2ccc(Cl)cn2c1C(=O)NCc1ccc(N2CCC(c3ccc(OC(F)(F)F)cc3)CC2)cc1`
Data returned: > 50 µM

Data request: Return minimum inhibitory concentration (reported value) for this molecule: `O=C(Nc1ccc2c(c1)B(O)OC2)c1ccccc1C(F)(F)F`
Data returned: > 50 µM

Data request: Return minimum inhibitory concentration (reported value) for this molecule: `CCN(CC)S(=O)(=O)c1ccc(C(=O)Nc2cc(C)nn2-c2nc(C)c(C)c(=O)[nH]2)cc1`
Data returned: 50 µM
